Data provenance is the supplement of paper PMC7125110.

B1: glmS ribozyme (parent)
chain: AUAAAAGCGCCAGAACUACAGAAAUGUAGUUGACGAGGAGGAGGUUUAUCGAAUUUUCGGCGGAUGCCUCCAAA

# Variants of: B1
# Test Method Notes: kcat; higher = faster cleavage; RNA array
# Assay Conditions: with glucosamine-6-phosphate
Variants at the floor of the assay were thinned out.

{"columns": ["Variant Description", "Result Qualifier", "kcat [s⁻¹]"],
 "data": [
  ["G29C U54C", "=", 0.00154],
  ["A15U C68A", "=", "2.71e-05"],
  ["G13U U65A", "=", 0.000112],
  ["G26U A48C", "=", 0.000587],
  ["C50G A53G", "=", "4.4e-05"],
  ["A39C G59A", "<", "1e-05"],
  ["U46A C70A", "=", 0.000184],
  ["U56A C67G", "=", 0.00221],
  ["U49G A64U", "=", "1.18e-05"],
  ["G13U C67U", "=", 0.000313],
  ["U65C C70U", "=", 0.000844],
  ["G29C C58A", "=", 0.000126],
  ["U45A C67G", "=", 0.000766],
  ["C11G C16U", "<", "1e-05"],
  ["C34G G60U", "<", "1e-05"],
  ["C16A U31A", "=", 0.0016],
  ["G41A A52G", "=", "8.32e-05"],
  ["A12C C71G", "=", 0.000645],
  ["G40A C50U U54C C68U", "<", "1e-05"],
  ["G43U U65G", "=", "4.38e-05"],
  ["G41C C70U", "=", 0.000551],
  ["G32A C58U", "=", "6.81e-05"],
  ["A6U U30A", "=", "3.27e-05"],
  ["U31C U55C", "=", 0.00793],
  ["G13A G29U", "=", "5.33e-05"],
  ["G59A G63U", "<", "1e-05"],
  ["A14U C71G", "=", 0.000432]
]}
